Target: 17β-HSD10 (Homo sapiens, UniProt Q99714)
Construct: Histev (histidine tag with TEV site) (N, cleaved yes); made in house; host or cells: E. coli BL21-CodonPlus
Sequence (Q99714 1-261): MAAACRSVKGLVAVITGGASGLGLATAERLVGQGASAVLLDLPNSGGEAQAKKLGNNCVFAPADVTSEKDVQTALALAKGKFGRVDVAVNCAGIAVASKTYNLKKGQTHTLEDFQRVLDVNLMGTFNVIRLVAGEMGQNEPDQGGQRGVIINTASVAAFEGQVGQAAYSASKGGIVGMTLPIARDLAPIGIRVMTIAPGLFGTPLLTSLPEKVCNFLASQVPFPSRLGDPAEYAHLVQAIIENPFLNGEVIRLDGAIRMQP
Assay: 17β-HSD10 (ABAD) enzyme inhibition assay, NADH oxidation read at 340 nm (primary screen and dose response)
Format: biochemical
Details: recombinant 17βHSD10 enzyme assay, curve fit
Parameter Hill Slope: see the listing below.
measuredProperty: Hill Slope

>>> df
                                   compound  measuredproperty  quantitativereadout
0  COc1ccc(C(=O)N(CC(C)C)c2cccc(N(C)Cc3cnc[nH]3)c2)cc1        Hill Slope                  0.8
1  CC(C)CN(C(=O)C(C)C)c1cccc(N(C)Cc2cnc[nH]2)c1        Hill Slope                    1
2  O=C(c1sccc1Cl)N1CCC[C@H]1c1ccccc1-c1ccc2[nH]ncc2c1 (racemic)        Hill Slope                  1.2
3  COc1ccc(-c2ccccc2[C@@H]2CCCN2C(=O)c2sccc2Cl)cc1OC (racemic)        Hill Slope                  1.1
4  CC(C)CN(C(=O)c1cccc2ccccc12)c1cccc(N(C)Cc2cnc[nH]2)c1        Hill Slope                  1.1
5  COc1cccc(-c2ccccc2[C@@H]2CCCN2C(=O)c2sccc2C)c1 [ESC1002338]        Hill Slope                  1.1
6  Cc1ccsc1C(=O)N1CCC[C@H]1c1ccccc1-c1ccc(C(F)(F)F)cc1        Hill Slope                  1.2

The values you see were collected from patent US20260132123A1.
